Provenance of the data: patent US20070196360A1

# System Name: purified topoisomerase II α (Homo sapiens)
# Experimental Details: Decatenation assay (kDNA decatenation)
# Type: biochemical
# Setup Conditions: FIG. 7; read-out: IC50, decatenation assay
Observation Type: IC50

# example entries with known answers
CN1C(=O)C=CC1=O [NMM, N-methyl-maleimide] = ~4 µM
O=C1C=CC(=O)N1 [maleimide] = ~2 µM

Please look at the following compound next.
Record CCN1C(=O)C=CC1=O [NEM, N-ethyl-maleimide] , field IC50: ~4 µM

----------
# System Name: purified topoisomerase II α (Homo sapiens, UniProt P11388)
# Sequence (P11388 whole entry): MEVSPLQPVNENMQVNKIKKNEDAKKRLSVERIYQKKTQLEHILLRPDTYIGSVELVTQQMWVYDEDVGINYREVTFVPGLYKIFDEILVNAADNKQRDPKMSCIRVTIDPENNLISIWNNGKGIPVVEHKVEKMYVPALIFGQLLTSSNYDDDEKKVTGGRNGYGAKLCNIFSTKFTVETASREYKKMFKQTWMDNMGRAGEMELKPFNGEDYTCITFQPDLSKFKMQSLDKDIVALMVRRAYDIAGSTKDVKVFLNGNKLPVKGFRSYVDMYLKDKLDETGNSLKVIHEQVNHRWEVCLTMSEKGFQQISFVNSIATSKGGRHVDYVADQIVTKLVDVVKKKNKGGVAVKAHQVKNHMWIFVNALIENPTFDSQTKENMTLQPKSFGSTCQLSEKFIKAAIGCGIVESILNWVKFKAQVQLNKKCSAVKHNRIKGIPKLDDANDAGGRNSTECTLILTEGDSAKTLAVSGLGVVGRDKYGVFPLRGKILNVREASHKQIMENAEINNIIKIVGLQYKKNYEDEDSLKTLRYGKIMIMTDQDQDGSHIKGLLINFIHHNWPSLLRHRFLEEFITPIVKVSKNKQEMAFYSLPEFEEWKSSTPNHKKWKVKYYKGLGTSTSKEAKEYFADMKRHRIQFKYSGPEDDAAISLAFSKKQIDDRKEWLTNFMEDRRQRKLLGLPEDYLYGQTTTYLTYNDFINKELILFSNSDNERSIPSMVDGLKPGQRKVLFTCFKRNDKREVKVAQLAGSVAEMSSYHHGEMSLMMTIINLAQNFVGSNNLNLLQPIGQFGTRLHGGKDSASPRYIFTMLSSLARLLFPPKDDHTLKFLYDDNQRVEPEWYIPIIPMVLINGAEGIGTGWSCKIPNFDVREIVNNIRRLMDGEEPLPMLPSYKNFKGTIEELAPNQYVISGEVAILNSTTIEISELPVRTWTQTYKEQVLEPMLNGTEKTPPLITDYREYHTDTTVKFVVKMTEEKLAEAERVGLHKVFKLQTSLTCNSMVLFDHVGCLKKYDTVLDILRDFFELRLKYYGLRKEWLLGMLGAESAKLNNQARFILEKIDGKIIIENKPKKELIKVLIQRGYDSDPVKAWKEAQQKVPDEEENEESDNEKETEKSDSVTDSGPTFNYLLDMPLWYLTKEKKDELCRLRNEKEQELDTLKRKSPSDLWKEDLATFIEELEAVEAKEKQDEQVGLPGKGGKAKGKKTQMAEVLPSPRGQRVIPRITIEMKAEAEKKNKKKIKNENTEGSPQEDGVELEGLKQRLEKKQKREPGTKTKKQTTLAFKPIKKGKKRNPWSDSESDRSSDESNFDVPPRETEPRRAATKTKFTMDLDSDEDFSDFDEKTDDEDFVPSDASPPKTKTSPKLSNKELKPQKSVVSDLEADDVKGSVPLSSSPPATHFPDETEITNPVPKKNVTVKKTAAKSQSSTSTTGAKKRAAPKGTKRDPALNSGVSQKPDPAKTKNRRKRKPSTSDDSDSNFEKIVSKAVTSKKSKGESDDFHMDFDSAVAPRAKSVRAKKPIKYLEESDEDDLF
# Experimental Details: Decatenation assay (kDNA decatenation)
# Assay type: biochemical
Observation Type: inhibition of topoisomerase II catalytic activity (decatenation), in words

CN1C(=O)C=CC1=O [NMM, N-methyl-maleimide] = Very potent,
C[C@@H](CN1CC(=O)NC(=O)C1)N1CC(=O)NC(=O)C1 [ICRF-187, reference compound] = effectively. IC50 about
O=C1C=CC(=O)N1 [maleimide] = Very potent,
CCN1C(=O)C=CC1=O [NEM, N-ethyl-maleimide] = Very potent,

Lab note: next molecule to report on.
Sure, the documented inhibition of topoisomerase II catalytic activity (decatenation), in words for CC(CNC1CC(=O)NC1=O)NC1CC(=O)NC1=O (centres unmarked) is effectively. IC50 about

----------
pIC50 overview
# System Name: purified topoisomerase II α (Homo sapiens, UniProt P11388)
# Experimental Details: Decatenation assay (kDNA decatenation)
# Format: biochemical
# Setup Conditions: read-out: IC50, topoisomerase II decatenation
Would you please state pIC50, meaning minus log10 of the concentration in mol/L, as a bare number?

Reference set (2 entries):
CN1C(=O)C=CC1=O [NMM, N-methyl-maleimide] = 5.30
CCN1C(=O)C=CC1=O [NEM, N-ethyl-maleimide] = 5.30

Okay, next one:
response.value for O=C1C=CC(=O)N1 [maleimide] (field: pIC50) = 5.70

----------
# System Name: purified topoisomerase II α (Homo sapiens)
# Experimental Details: Decatenation assay (kDNA decatenation)
# Assay type: biochemical
# Setup Conditions: read-out: IC50, topoisomerase II decatenation
Listing of entries alongside the reported IC50.

Recorded results for 2 molecules are shown here.
O=C1CC(NCCNC2CC(=O)NC2=O)C(=O)N1 (stereo not drawn) = ~800 µM
CC(CNC1CC(=O)NC1=O)NC1CC(=O)NC1=O (stereo not drawn) = ~100 µM

Now for the molecule whose IC50 we want.
Entry C[C@@H](CN1CC(=O)NC(=O)C1)N1CC(=O)NC(=O)C1 [ICRF-187, reference compound] ; IC50 = ~50 µM
